Below, each entry is listed with its recorded susceptibility, %.
# Test system: Klebsiella isolates
# experimentSummary: Antibiotic susceptibility of Klebsiella clinical isolates per 7-SNP clonotype (Lookup Table 1; disk diffusion)
# Format: cell-based, Klebsiella spp.
# conditionParameters: CT 550

Previously resolved entries follow.
• CC1(C)S[C@@H]2[C@H](NC(=O)[C@H](N)c3ccccc3)C(=O)N2[C@H]1C(=O)O [AMP, ampicillin] = 0%
• C[C@@H]1O[C@@H]1P(=O)(O)O [FOS, fosfomycin] = 33%
• C[C@@H](O)[C@H]1C(=O)N2C(C(=O)O)=C(SCCN=CN)C[C@H]12 [IMI, imipenem] = 98%
• CN(C)[C@@H]1C(O)=C(C(N)=O)C(=O)[C@@]2(O)C(O)=C3C(=O)c4c(O)cccc4[C@@](C)(O)[C@H]3C[C@@H]12 [TET, tetracycline] = 75%

From here, focus on the item given below.
Query string: So what does the record say about susceptibility, % for O=C1CN(/N=C/c2ccc([N+](=O)[O-])o2)C(=O)N1 [NIT, nitrofurantoin] ?
Result string: 19%

---

# Tested on: Klebsiella isolates
# experimentSummary: Antibiotic susceptibility of Klebsiella clinical isolates per 7-SNP clonotype (Lookup Table 1; disk diffusion)
# Assay type: cell-based, Klebsiella spp.
# conditionParameters: CT 751
Below, each entry is listed with its recorded susceptibility, %.
Quick reminder: number only, in %, skip the unit.

Previously resolved entries follow.
• C[C@@H]1O[C@@H]1P(=O)(O)O = 17
• C[C@@H](O)[C@H]1C(=O)N2C(C(=O)O)=C(SCCN=CN)C[C@H]12 = 100

Query string: Any idea what susceptibility, % came out for CC1(C)S[C@@H]2[C@H](NC(=O)[C@H](N)c3ccccc3)C(=O)N2[C@H]1C(=O)O on Klebsiella isolates?
Result string: 17

Query string: Any idea what susceptibility, % came out for O=C1CN(/N=C/c2ccc([N+](=O)[O-])o2)C(=O)N1 on Klebsiella isolates?
Result string: 33

Query string: Any idea what susceptibility, % came out for CN(C)[C@@H]1C(O)=C(C(N)=O)C(=O)[C@@]2(O)C(O)=C3C(=O)c4c(O)cccc4[C@@](C)(O)[C@H]3C[C@@H]12 on Klebsiella isolates?
Result string: 100

---

# Tested on: Klebsiella isolates
# experimentSummary: Antibiotic susceptibility of Klebsiella clinical isolates per 7-SNP clonotype (Lookup Table 1; disk diffusion)
# Format: cell-based, Klebsiella spp.
# conditionParameters: CT 111
propertyLabel: susceptibility, % (%)
Quick reminder: number only, in %, skip the unit.

• C[C@@H]1O[C@@H]1P(=O)(O)O = 30
• CN(C)[C@@H]1C(O)=C(C(N)=O)C(=O)[C@@]2(O)C(O)=C3C(=O)c4c(O)cccc4[C@@](C)(O)[C@H]3C[C@@H]12 = 90
• C[C@@H](O)[C@H]1C(=O)N2C(C(=O)O)=C(SCCN=CN)C[C@H]12 = 100

Query string: So what does the record say about susceptibility, % for O=C1CN(/N=C/c2ccc([N+](=O)[O-])o2)C(=O)N1 ?
Result string: 30

Query string: So what does the record say about susceptibility, % for CC1(C)S[C@@H]2[C@H](NC(=O)[C@H](N)c3ccccc3)C(=O)N2[C@H]1C(=O)O ?
Result string: 0

---

# System: Klebsiella isolates
# experimentSummary: Antibiotic susceptibility of Klebsiella clinical isolates per 7-SNP clonotype (Lookup Table 1; disk diffusion)
# Format: cell-based, Klebsiella spp.
# conditionParameters: CT 531
propertyLabel: susceptibility, % (%)
Quick reminder: number only, in %, skip the unit.

Previously resolved entries follow.
- C[C@@H](O)[C@H]1C(=O)N2C(C(=O)O)=C(SCCN=CN)C[C@H]12: 100
- C[C@@H]1O[C@@H]1P(=O)(O)O: 33
- CN(C)[C@@H]1C(O)=C(C(N)=O)C(=O)[C@@]2(O)C(O)=C3C(=O)c4c(O)cccc4[C@@](C)(O)[C@H]3C[C@@H]12: 100
- CC1(C)S[C@@H]2[C@H](NC(=O)[C@H](N)c3ccccc3)C(=O)N2[C@H]1C(=O)O: 0

Query string: So what does the record say about susceptibility, % for O=C1CN(/N=C/c2ccc([N+](=O)[O-])o2)C(=O)N1 ?
Result string: 33

---

Below, each entry is listed with its recorded susceptibility, %.
# Tested on: Klebsiella isolates
# experimentSummary: Antibiotic susceptibility of Klebsiella clinical isolates per 7-SNP clonotype (Lookup Table 1; disk diffusion)
# Assay type: cell-based, Klebsiella spp.
# conditionParameters: CT 551
Quick reminder: number only, in %, skip the unit.

Previously resolved entries follow.
• O=C1CN(/N=C/c2ccc([N+](=O)[O-])o2)C(=O)N1 = 18
• CC1(C)S[C@@H]2[C@H](NC(=O)[C@H](N)c3ccccc3)C(=O)N2[C@H]1C(=O)O = 0
• C[C@@H]1O[C@@H]1P(=O)(O)O = 36
• CN(C)[C@@H]1C(O)=C(C(N)=O)C(=O)[C@@]2(O)C(O)=C3C(=O)c4c(O)cccc4[C@@](C)(O)[C@H]3C[C@@H]12 = 93

From here, focus on the item given below.
Query string: So what does the record say about susceptibility, % for C[C@@H](O)[C@H]1C(=O)N2C(C(=O)O)=C(SCCN=CN)C[C@H]12 ?
Result string: 75

---

# Test system: Klebsiella isolates
# experimentSummary: Antibiotic susceptibility of Klebsiella clinical isolates per 7-SNP clonotype (Lookup Table 1; disk diffusion)
# Type: cell-based, Klebsiella spp.
# conditionParameters: CT 031
Below, each entry is listed with its recorded susceptibility, %.
Remember to put the unit after the number in your answer.

Previously resolved entries follow.
• CN(C)[C@@H]1C(O)=C(C(N)=O)C(=O)[C@@]2(O)C(O)=C3C(=O)c4c(O)cccc4[C@@](C)(O)[C@H]3C[C@@H]12 = 67%
• C[C@@H](O)[C@H]1C(=O)N2C(C(=O)O)=C(SCCN=CN)C[C@H]12 = 67%
• C[C@@H]1O[C@@H]1P(=O)(O)O = 33%
• O=C1CN(/N=C/c2ccc([N+](=O)[O-])o2)C(=O)N1 = 100%

Query string: So what does the record say about susceptibility, % for CC1(C)S[C@@H]2[C@H](NC(=O)[C@H](N)c3ccccc3)C(=O)N2[C@H]1C(=O)O ?
Result string: 0%

---

Below, each entry is listed with its recorded susceptibility, %.
# Tested on: Klebsiella isolates
# experimentSummary: Antibiotic susceptibility of Klebsiella clinical isolates per 7-SNP clonotype (Lookup Table 1; disk diffusion)
# Type: cell-based, Klebsiella spp.
# conditionParameters: CT 571
Quick reminder: number only, in %, skip the unit.

- CC1(C)S[C@@H]2[C@H](NC(=O)[C@H](N)c3ccccc3)C(=O)N2[C@H]1C(=O)O [AMP, ampicillin]: 0
- CN(C)[C@@H]1C(O)=C(C(N)=O)C(=O)[C@@]2(O)C(O)=C3C(=O)c4c(O)cccc4[C@@](C)(O)[C@H]3C[C@@H]12 [TET, tetracycline]: 100

Query string: So what does the record say about susceptibility, % for C[C@@H](O)[C@H]1C(=O)N2C(C(=O)O)=C(SCCN=CN)C[C@H]12 [IMI, imipenem] ?
Result string: 100

Query string: So what does the record say about susceptibility, % for C[C@@H]1O[C@@H]1P(=O)(O)O [FOS, fosfomycin] ?
Result string: 25

Query string: So what does the record say about susceptibility, % for O=C1CN(/N=C/c2ccc([N+](=O)[O-])o2)C(=O)N1 [NIT, nitrofurantoin] ?
Result string: 50
